Reference source: paper PMC8272121

READOUT TYPE: melting point

INSERT INTO results (molecule, result) VALUES
  ('O=C(/C=C/c1ccccc1F)c1ccc(S(=O)(=O)NCCCNc2ccnc3cc(Cl)ccc23)cc1 [Compound 15]', '223 to 225 °C'),
  ('O=C(/C=C/c1ccco1)c1ccc(S(=O)(=O)NCCCNc2ccnc3cc(Cl)ccc23)cc1 [Compound 21]', '222 to 224 °C'),
  ('COc1ccc(/C=C/C(=O)c2ccc(S(=O)(=O)NCCNc3ccnc4cc(Cl)ccc34)cc2)cc1 [Compound 17]', '222 to 225 °C');

Ask: Would you kindly share the measured melting point for O=C(/C=C/c1ccc2c(c1)OCO2)c1ccc(S(=O)(=O)NCCCNc2ccnc3cc(Cl)ccc23)cc1 [Compound 26] ?
Result: 222 to 224 °C

Ask: What do we get for O=C(/C=C/c1ccc(F)c(F)c1)c1ccc(S(=O)(=O)NCCCNc2ccnc3cc(Cl)ccc23)cc1 [Compound 13] ?
Result: 212 to 214 °C

Ask: What do we get for O=C(/C=C/c1ccc(F)cc1F)c1ccc(S(=O)(=O)NCCCNc2ccnc3cc(Cl)ccc23)cc1 [Compound 18] ?
Result: 216 to 218 °C

Ask: What do we get for O=C(/C=C/c1ccc(F)cc1)c1ccc(S(=O)(=O)NCCNc2ccnc3cc(Cl)ccc23)cc1 [Compound 24] ?
Result: 222 to 224 °C

Ask: What do we get for CC(=O)c1ccc(S(=O)(=O)NCCCNc2ccnc3cc(Cl)ccc23)cc1 [Compound 5] ?
Result: 181 to 183 °C

Ask: What do we get for CC(=O)c1ccc(S(=O)(=O)NCCNc2ccnc3cc(Cl)ccc23)cc1 [Compound 4] ?
Result: 200 to 204 °C

Ask: What do we get for COc1cc(/C=C/C(=O)c2ccc(S(=O)(=O)NCCCNc3ccnc4cc(Cl)ccc34)cc2)cc(OC)c1OC [Compound 16] ?
Result: 197 to 200 °C

Ask: What do we get for O=C(/C=C/c1ccccc1Cl)c1ccc(S(=O)(=O)NCCNc2ccnc3cc(Cl)ccc23)cc1 [Compound 25] ?
Result: 209 to 211 °C

Ask: What do we get for Cc1ccc(/C=C/C(=O)c2ccc(S(=O)(=O)NCCCNc3ccnc4cc(Cl)ccc34)cc2)cc1 [Compound 7] ?
Result: 209 to 213 °C

Ask: What do we get for O=C(C=Cc1ccccc1)c1ccc(S(=O)(=O)NCCCNc2ccnc3cc(Cl)ccc23)cc1 [Compound 6] ?
Result: 210 to 212 °C

Ask: What do we get for COc1ccc(/C=C/C(=O)c2ccc(S(=O)(=O)NCCCNc3ccnc4cc(Cl)ccc34)cc2)cc1 [Compound 12] ?
Result: 221 to 223 °C

Ask: What do we get for O=C(/C=C/c1ccc(OC(F)(F)F)cc1)c1ccc(S(=O)(=O)NCCCNc2ccnc3cc(Cl)ccc23)cc1 [Compound 27] ?
Result: 223 to 225 °C

* * *

assay: Aqueous solubility, miniaturized shake flask method (HPLC-DAD); format: physicochemical; details: aqueous solution, aqueous buffer, thermodynamic from solid, pH 6.5, shake flask 20 h, 25 °C
Recorded solubility at 20 h values for a group of compounds are listed next.

Some solved entries appear below for comparison.
INSERT INTO assay_data (compound, result) VALUES
  ('O=C(/C=C/c1ccc(F)c(F)c1)c1ccc(S(=O)(=O)NCCCNc2ccnc3cc(Cl)ccc23)cc1 [Compound 13]', '< 5 µM'),
  ('Cc1ccc(/C=C/C(=O)c2ccc(S(=O)(=O)NCCCNc3ccnc4cc(Cl)ccc34)cc2)cc1 [Compound 7]', '130 µM'),
  ('CC(=O)c1ccc(S(=O)(=O)NCCCNc2ccnc3cc(Cl)ccc23)cc1 [Compound 5]', '< 5 µM'),
  ('CC(=O)c1ccc(S(=O)(=O)NCCNc2ccnc3cc(Cl)ccc23)cc1 [Compound 4]', '200 µM'),
  ('COc1ccc(/C=C/C(=O)c2ccc(S(=O)(=O)NCCNc3ccnc4cc(Cl)ccc34)cc2)cc1 [Compound 17]', '185 µM');

Ask: Would you kindly share the measured solubility at 20 h for O=C(/C=C/c1ccc2c(c1)OCO2)c1ccc(S(=O)(=O)NCCCNc2ccnc3cc(Cl)ccc23)cc1 [Compound 26] ?
Result: 200 µM

Ask: What do we get for O=C(/C=C/c1ccc(F)cc1)c1ccc(S(=O)(=O)NCCCNc2ccnc3cc(Cl)ccc23)cc1 [Compound 9] ?
Result: < 5 µM

Ask: What do we get for O=C(/C=C/c1ccccc1Cl)c1ccc(S(=O)(=O)NCCNc2ccnc3cc(Cl)ccc23)cc1 [Compound 25] ?
Result: 19 µM

Ask: What do we get for COc1cc(/C=C/C(=O)c2ccc(S(=O)(=O)NCCCNc3ccnc4cc(Cl)ccc34)cc2)cc(OC)c1OC [Compound 16] ?
Result: 15 µM

Ask: What do we get for O=C(/C=C/c1c(F)cccc1F)c1ccc(S(=O)(=O)NCCCNc2ccnc3cc(Cl)ccc23)cc1 [Compound 10] ?
Result: < 5 µM

Ask: What do we get for Cc1ccc(/C=C/C(=O)c2ccc(S(=O)(=O)NCCNc3ccnc4cc(Cl)ccc34)cc2)cc1 [Compound 22] ?
Result: 190 µM

Ask: What do we get for O=C(/C=C/c1ccc(F)cc1)c1ccc(S(=O)(=O)NCCNc2ccnc3cc(Cl)ccc23)cc1 [Compound 24] ?
Result: < 5 µM

* * *

Recorded pIC50 values for a group of compounds are listed next.
system: P. falciparum K1 (multi-drug resistant strain); experiment: In vitro antiplasmodial activity against multi-drug resistant K1 strain; assay type: cell-based; details: Plasmodium falciparum; multi-drug resistant K1 strain of P. falciparum; read-out: PfK1 IC50
When answering, recall that pIC50 equals minus log10 of the concentration in mol/L, and write that number alone.

INSERT INTO assay_data (smiles_repr, number) VALUES
  ('COc1ccc(/C=C/C(=O)c2ccc(S(=O)(=O)NCCCNc3ccnc4cc(Cl)ccc34)cc2)cc1', 6.23);

Ask: Would you kindly share the measured pIC50 for `O=C(/C=C/c1ccc(Cl)cc1)c1ccc(S(=O)(=O)NCCCNc2ccnc3cc(Cl)ccc23)cc1` ?
Result: 5.22

Ask: What do we get for `O=C(/C=C/c1ccccc1Br)c1ccc(S(=O)(=O)NCCCNc2ccnc3cc(Cl)ccc23)cc1` ?
Result: 5.53

* * *

Recorded pIC50 values for a group of compounds are listed next.
test system: P. falciparum NF54 (drug-sensitive strain); assay: In vitro antiplasmodial assay (parasite lactate dehydrogenase), chloroquine-sensitive NF54 strain; assay type: cell-based, Plasmodium falciparum; details: Plasmodium falciparum; sensitive (NF54) strain of P. falciparum; pLDH assay, 48 h; mean of ≥2 independent experiments; read-out: PfNF54 IC50
When answering, recall that pIC50 equals minus log10 of the concentration in mol/L, and write that number alone.

INSERT INTO assay_data (smiles_repr, number) VALUES
  ('COc1cc(/C=C/C(=O)c2ccc(S(=O)(=O)NCCCNc3ccnc4cc(Cl)ccc34)cc2)cc(OC)c1OC', 6.24),
  ('O=C(/C=C/c1ccccc1Cl)c1ccc(S(=O)(=O)NCCNc2ccnc3cc(Cl)ccc23)cc1', 6.43),
  ('O=C(/C=C/c1ccccc1F)c1ccc(S(=O)(=O)NCCCNc2ccnc3cc(Cl)ccc23)cc1', 6.07),
  ('COc1ccc(/C=C/C(=O)c2ccc(S(=O)(=O)NCCCNc3ccnc4cc(Cl)ccc34)cc2)cc1OC', 6.49),
  ('O=C(/C=C/c1ccc(F)cc1)c1ccc(S(=O)(=O)NCCCNc2ccnc3cc(Cl)ccc23)cc1', 6.55);

Ask: Would you kindly share the measured pIC50 for `CC(=O)c1ccc(S(=O)(=O)NCCNc2ccnc3cc(Cl)ccc23)cc1` ?
Result: 6.35

Ask: What do we get for `O=C(/C=C/c1ccc(F)cc1)c1ccc(S(=O)(=O)NCCNc2ccnc3cc(Cl)ccc23)cc1` ?
Result: 6.24

* * *

Recorded pIC50 values for a group of compounds are listed next.
system: P. falciparum NF54 (drug-sensitive strain); assay: In vitro antiplasmodial assay (parasite lactate dehydrogenase), chloroquine-sensitive NF54 strain; assay type: cell-based, Plasmodium falciparum; settings: Plasmodium falciparum; sensitive (NF54) strain of P. falciparum; pLDH assay, 48 h; mean of ≥2 independent experiments; read-out: PfNF54 IC50
When answering, recall that pIC50 equals minus log10 of the concentration in mol/L, and write that number alone.

INSERT INTO assay_data (smiles_repr, number) VALUES
  ('O=C(/C=C/c1ccc(Cl)cc1)c1ccc(S(=O)(=O)NCCCNc2ccnc3cc(Cl)ccc23)cc1', 7.00),
  ('Cc1ccc(/C=C/C(=O)c2ccc(S(=O)(=O)NCCCNc3ccnc4cc(Cl)ccc34)cc2)cc1', 6.43);

We now examine a further compound.
Ask: Would you kindly share the measured pIC50 for `O=C(C=Cc1ccccc1)c1ccc(S(=O)(=O)NCCCNc2ccnc3cc(Cl)ccc23)cc1` ?
Result: 5.78
